Biological target: BTK^KD and cIAP1^BUCR1 ternary complex (Homo sapiens, UniProt Q06187+Q13490)
Construct: BTK^KD (aa384-659) were expressed and purified as previously described; cIAP1^BUCR1 (aa260-618), and BTK^KD (aa384-659) were expressed and purified as previously described; biotin / BAP (only when BTK^KD~BCCov was the sensor ligand); made in house; host or cells: BTK^KD: SF9 insect cells; cIAP1^BUCR1: E. coli BL21-DE3
Sequence (Q06187 384-659): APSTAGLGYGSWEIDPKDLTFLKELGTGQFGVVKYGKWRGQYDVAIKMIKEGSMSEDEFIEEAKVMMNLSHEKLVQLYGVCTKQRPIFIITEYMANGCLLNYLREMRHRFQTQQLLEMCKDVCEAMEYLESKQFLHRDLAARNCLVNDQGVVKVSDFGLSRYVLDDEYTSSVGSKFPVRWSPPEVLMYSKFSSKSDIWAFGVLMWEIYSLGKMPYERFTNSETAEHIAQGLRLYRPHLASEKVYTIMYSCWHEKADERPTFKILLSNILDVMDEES
Sequence (Q13490 260-618): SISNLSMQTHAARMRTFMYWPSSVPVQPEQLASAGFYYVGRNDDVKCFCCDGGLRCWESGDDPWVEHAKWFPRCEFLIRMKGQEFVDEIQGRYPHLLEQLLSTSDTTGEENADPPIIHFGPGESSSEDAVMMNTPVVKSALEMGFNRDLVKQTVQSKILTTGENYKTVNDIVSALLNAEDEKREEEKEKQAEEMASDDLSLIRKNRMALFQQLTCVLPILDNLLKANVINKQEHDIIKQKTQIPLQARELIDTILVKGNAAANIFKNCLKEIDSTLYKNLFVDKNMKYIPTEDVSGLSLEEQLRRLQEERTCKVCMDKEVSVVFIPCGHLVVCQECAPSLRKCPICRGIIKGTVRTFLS
Assay: Biolayer interferometry (BLI) ternary complex formation
Type: binding
Settings: [cIAP1^BUCR1-BCNC] binary complex binding BTK^KD; read-out: Kd, ternary complex
Recorded metric: Kd (nM)
Give your result in nM as a bare value.

Q) May I ask what Kd has been recorded for CNC(C)C(=O)NC(C(=O)N1CC(NC(=O)COCCN2CCN(CCCC(=O)N3CCCC(n4nc(-c5ccc(Oc6ccccc6)cc5)c5c(N)ncnc54)C3)CC2)CC1C(=O)NC1CCCc2ccccc21)C1CCCCC1 (stereo not shown) ?
A) 49.8

###

Target: BTK^KD and cIAP1^BUCR1 ternary complex (Homo sapiens, UniProt Q06187+Q13490)
Construct: BTK^KD (aa384-659) were expressed and purified as previously described; cIAP1^BUCR1 (aa260-618), and BTK^KD (aa384-659) were expressed and purified as previously described; biotin / BAP (only when BTK^KD~BCCov was the sensor ligand); made in house; host or cells: BTK^KD: SF9 insect cells; cIAP1^BUCR1: E. coli BL21-DE3
Assay: Biolayer interferometry (BLI) ternary complex formation
Format: binding
Recorded metric: Kd (nM)
Reply with just the number (in nM).

Q) Consider the compound shown here: CNC(C)C(=O)NC(C(=O)N1CC(NC(=O)COCCN2CCN(CC=CC(=O)N3CCCC(n4nc(-c5ccc(Oc6ccccc6)cc5)c5c(N)ncnc54)C3)CC2)CC1C(=O)NC1CCCc2ccccc21)C1CCCCC1 (stereo not shown) What is its recorded Kd?
A) 72.5

The measurements presented in this section are drawn from paper PMC9981747.
